# tested_system: BCL-XL (Homo sapiens)
# Construct: endogenous in cells; host or cells: MOLT-4
# experimental_details: Bcl-xL ELISA degradation in MOLT-4 cells, 6 h
# Type: cell-based
reported_endpoint: Dmax

[[record]]
compound = "Cc1ncsc1-c1ccc([C@H](C)NC(=O)[C@@H]2C[C@@H](O)CN2C(=O)[C@@H](NC(=O)C2CCN(c3cccc(S(=O)(=O)NC(=O)c4nc(N5CCc6cccc(C(=O)Nc7nc8ccccc8s7)c6C5)ccc4-c4cnn(CC5CCCCC5)c4C)c3)CC2)C(C)(C)C)cc1 [I-380]"
val = "> 75%"

[[record]]
compound = "Cc1cc(N(C)c2ccc(-c3cnn(CC45CC6CC(CC(C6)C4)C5)c3C)c(C(=O)NS(=O)(=O)CC3CCN(CC(=O)N[C@H](C(=O)N4C[C@H](O)C[C@H]4C(=O)N[C@@H](C)c4ccc(-c5scnc5C)cc4)C(C)(C)C)CC3)n2)nnc1Nc1nc2cccnc2s1 [I-449]"
val = "> 75%"

[[record]]
compound = "Cc1ncsc1-c1ccc([C@H](C)NC(=O)[C@@H]2C[C@@H](O)CN2C(=O)[C@H](c2cc(N3CC4(CN(c5ccc(S(=O)(=O)NC(=O)c6nc(N7CCc8cccc(C(=O)Nc9nc%10ccccc%10s9)c8C7)ccc6-c6cnn(CC7CCCCC7)c6C)cc5)C4)C3)no2)C(C)C)cc1 [I-225]"
val = "50 to 75%"


Turning to the following compound.
What value of Dmax has been reported for the following compound? C#Cc1ccc(CNC(=O)[C@@H]2C[C@@H](O)CN2C(=O)[C@@H](NC(=O)CCNCCS(=O)(=O)NC(=O)c2nc(N(C)c3cc(C)c(Nc4nc5ccccc5s4)nn3)ccc2-c2cnn(CC34CC5CC(CC(C5)C3)C4)c2C)C(C)(C)C)cc1 [I-429]
> 75%

###

# tested_system: BCL-XL (Homo sapiens, UniProt Q07817)
# Construct: endogenous in cells; host or cells: MOLT-4
# Sequence (Q07817 whole entry): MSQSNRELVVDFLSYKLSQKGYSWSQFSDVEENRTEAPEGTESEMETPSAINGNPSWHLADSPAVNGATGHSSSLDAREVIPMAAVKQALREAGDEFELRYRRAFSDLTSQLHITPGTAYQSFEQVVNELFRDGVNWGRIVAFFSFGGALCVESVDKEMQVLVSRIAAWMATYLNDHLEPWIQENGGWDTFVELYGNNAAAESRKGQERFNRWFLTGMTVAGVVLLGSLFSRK
# experimental_details: Bcl-xL ELISA degradation in MOLT-4 cells, 6 h
# Assay type: cell-based
reported_endpoint: Dmax

[[record]]
compound = "Cc1ncsc1-c1ccc([C@H](C)NC(=O)[C@@H]2C[C@@H](O)CN2C(=O)[C@H](c2cc(OCC3CCN(CCNC(=O)c4nc(N5CCc6cccc(C(=O)Nc7nc8ccccc8s7)c6C5)ccc4-c4cnn(CC5CCCCC5)c4C)CC3)no2)C(C)C)cc1"
val = "50 to 75%"

[[record]]
compound = "Cc1c(-c2ccc(N3CCc4cccc(C(=O)Nc5nc6cccnc6s5)c4C3)nc2C(=O)NS(=O)(=O)CCCCCC(=O)N[C@H](C(=O)N2C[C@H](O)C[C@H]2C(=O)N[C@H](C)c2ccc(C#N)cc2O)C(C)(C)C)cnn1CC1CCCCC1 (single isomer, unassigned)"
val = "> 75%"

[[record]]
compound = "Cc1ncsc1-c1ccc([C@H](C)NC(=O)[C@@H]2C[C@@H](O)CN2C(=O)[C@@H](NC(=O)C2CCN(c3ccc(S(=O)(=O)NC(=O)c4nc(N5CCc6cccc(C(=O)Nc7nc8ccccc8s7)c6C5)ccc4-c4cnn(CC5CCCCC5)c4C)cc3F)CC2)C(C)(C)C)cc1"
val = "> 75%"


Turning to the following compound.
What value of Dmax has been reported for the following compound? Cc1ncsc1-c1ccc([C@H](C)NC(=O)[C@@H]2C[C@@H](O)CN2C(=O)[C@@H](NC(=O)CCC2CCC(S(=O)(=O)NC(=O)c3nc(N4CCc5cccc(C(=O)Nc6nc7ccccc7s6)c5C4)ccc3-c3cnn(CC4CCCCC4)c3C)CC2)C(C)(C)C)cc1 (stereo partly shown)
50 to 75%
